biological target: Human recombinant Histone Deacetylase 8 (HDAC8) (Homo sapiens (Human)); assay: HDAC8 Enzymatic Assay (HDAC-Glo I/II luminescence); format: biochemical; details: class symbols, Table 14; read-out: HDAC8 IC50
pIC50: −log10 of the molar value.
Can you tell me pIC50 for the items I'm about to list?

// sample O=C(NO)C(Cc1ccccc1)n1ncc2ccc(-c3cncnc3)cc21 (centres unmarked) , its pIC50 was < 6.30

// sample NC(=O)c1ccc(-c2nccc3c(C#CC4CC4)n(C(Cc4ccccc4)C(=O)NO)nc23)cc1 (centres unmarked) , its pIC50 was ≥ 7.30

// sample N/C(=N\O)c1ccc(-c2ccc3nn(C(Cc4ccccc4)C(=O)NO)cc3c2)cc1 (centres unmarked) , its pIC50 was 6.70 to 7.30

// sample O=C(NO)C(Cc1ccccc1)n1cc2cccc(CNC3CC3)c2n1 (centres unmarked) , its pIC50 was 6.30 to 6.70

// sample O=C(NO)C(Cc1ccccc1)n1cc2c(-c3ccncc3)cccc2n1 (centres unmarked) , its pIC50 was 6.30 to 6.70

// sample O=C(NO)C(Cc1ccccc1)c1cnc2cc(-c3ccncc3)ccn12 (centres unmarked) , its pIC50 was < 6.30

// sample O=C(NO)C(Cc1ccccc1)n1nc2c(-c3ccncc3)cccc2c1C#CC1CC1 (centres unmarked) , its pIC50 was ≥ 7.30

// sample O=C(NO)C(Cc1ccccc1)n1cc2cccc(CNCC3CC3)c2n1 (centres unmarked) , its pIC50 was < 6.30

// sample CCc1ccc2cnn(C(Cc3ccccc3)C(=O)NO)c2c1 (centres unmarked) , its pIC50 was 6.30 to 6.70

// sample O=C(NO)C(Cc1ccccc1)n1ncc2c(-c3ccncc3)nccc21 (centres unmarked) , its pIC50 was 6.70 to 7.30

// sample Cc1cccc2nn(C(Cc3ccccc3)C(=O)NO)cc12 (centres unmarked) , its pIC50 was < 6.30

* * *

Can you tell me pIC50 for the items I'm about to list?
molecular target: Human recombinant Histone Deacetylase 8 (HDAC8) (Homo sapiens (Human), UniProt Q9BY41); assay: HDAC8 Enzymatic Assay (HDAC-Glo I/II luminescence); format: biochemical; settings: HDAC8; read-out: IC50
Sequence (Q9BY41 whole entry): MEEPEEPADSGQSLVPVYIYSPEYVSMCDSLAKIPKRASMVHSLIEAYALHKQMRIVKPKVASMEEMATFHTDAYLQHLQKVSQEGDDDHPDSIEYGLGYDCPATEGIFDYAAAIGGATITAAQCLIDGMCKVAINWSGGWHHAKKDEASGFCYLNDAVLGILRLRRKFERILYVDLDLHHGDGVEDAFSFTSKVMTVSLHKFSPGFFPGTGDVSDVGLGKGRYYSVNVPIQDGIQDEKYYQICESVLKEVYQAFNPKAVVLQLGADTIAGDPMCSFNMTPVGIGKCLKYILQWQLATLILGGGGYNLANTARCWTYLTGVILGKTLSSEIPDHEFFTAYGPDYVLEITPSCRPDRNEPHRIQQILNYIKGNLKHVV
Scale explanation: pIC50 corresponds to minus log10 of a concentration expressed in moles per litre.

// sample O=C(NO)C(Cc1ccccc1)n1nc2c(Cl)nccc2c1C#CC1CC1 (centres unmarked) , its pIC50 was 8.24

// sample O=C(NO)C(Cc1ccccc1)n1ncc2cc(-c3ccncc3)ccc21 (centres unmarked) , its pIC50 was 7.06

// sample CC1CCN(c2cccc3nn(C(Cc4ccccc4)C(=O)NO)cc23)CC1 (centres unmarked) , its pIC50 was 6.14

// sample O=C(NO)C(Cc1ccccc1)n1cc2cc(Cl)ccc2n1 (centres unmarked) , its pIC50 was 6.47

// sample Cn1nc(C(Cc2ccccc2)C(=O)NO)c2ccc(Cl)cc21 (centres unmarked) , its pIC50 was 7.41

// sample O=C(NO)C(Cc1ccccc1)n1nc2ccc(-c3ccccc3)cc2c1C#CC1CC1 (centres unmarked) , its pIC50 was 6.87

// sample O=C(NO)C(Cc1ccccc1)n1ncc2cc(Cl)ccc21 (centres unmarked) , its pIC50 was 6.85

// sample O=C(NO)C(Cc1ccccc1)c1cnc2cc(Cl)ccn12 (centres unmarked) , its pIC50 was 7.66

// sample Cn1nccc1-c1nccc2c(C#CC3CC3)n(C(Cc3ccccc3)C(=O)NO)nc12 (centres unmarked) , its pIC50 was 8.37

// sample O=C(NO)C(Cc1ccccc1)n1cc2cccc(C(=O)N3CCOCC3)c2n1 (centres unmarked) , its pIC50 was 5.93

// sample Cn1nc(C(Cc2ccccc2)C(=O)NO)c2ccc(-c3cncnc3)cc21 (centres unmarked) , its pIC50 was 7.08

// sample O=C(NCCC1CCOCC1)c1cccc2c(C#CC3CC3)n(C(Cc3ccccc3)C(=O)NO)nc12 (centres unmarked) , its pIC50 was 7.80

// sample O=C(NO)C(Cc1ccccc1)n1nc2ccc(Cl)cc2c1C#CC1CC1 (centres unmarked) , its pIC50 was 7.66

// sample O=C(NO)C(Cc1ccccc1)c1cnc2c(Cl)cccn12 (centres unmarked) , its pIC50 was 6.59

// sample CCc1ccc2cnn(C(Cc3ccccc3)C(=O)NO)c2c1 (centres unmarked) , its pIC50 was 6.35

// sample O=C(NO)C(Cc1ccccc1)n1cc2cccc(CNC3CC3)c2n1 (centres unmarked) , its pIC50 was 6.33

// sample O=C(NO)C(Cc1ccccc1)n1nc(C#CC2CC2)c2ccnc(Cl)c21 (centres unmarked) , its pIC50 was 7.00

* * *

molecular target: Human recombinant Histone Deacetylase 8 (HDAC8) (Homo sapiens (Human), UniProt Q9BY41); assay: HDAC8 Enzymatic Assay (HDAC-Glo I/II luminescence); assay type: biochemical; details: class symbols, Table 14; read-out: HDAC8 IC50
pIC50: −log10 of the molar value.
VALUE KIND: pIC50

// sample COc1ccc(-c2ccc3nn(C(Cc4ccccc4)C(=O)NO)c(C#CC4CC4)c3c2)cn1 (stereo not drawn) , its pIC50 was 6.30 to 6.70

// sample O=C(NO)C(Cc1ccccc1)n1ncc2ccccc21 (stereo not drawn) , its pIC50 was < 6.30

// sample O=C(NO)C(Cc1ccccc1)n1cc2cccc(-c3ccccc3)c2n1 (stereo not drawn) , its pIC50 was < 6.30

// sample N#Cc1cccc(-c2cnc3c(cnn3C(Cc3ccccc3)C(=O)NO)c2)c1 (stereo not drawn) , its pIC50 was < 6.30

// sample Cc1ccc2cn(C(Cc3ccccc3)C(=O)NO)nc2c1 (stereo not drawn) , its pIC50 was < 6.30

// sample O=C(NO)C(Cc1ccccc1)n1nc2c(C3CC3)cccc2c1C#CC1CC1 (stereo not drawn) , its pIC50 was ≥ 7.30

// sample O=C(NO)C(Cc1ccccc1)n1cc2cc(-c3ccccc3)ccc2n1 (stereo not drawn) , its pIC50 was < 6.30

// sample Cc1cccc2c1cnn2C(Cc1ccccc1)C(=O)NO (stereo not drawn) , its pIC50 was < 6.30

// sample Cc1cccc2c(C#CC3CC3)n(C(Cc3ccccc3)C(=O)NO)nc12 (stereo not drawn) , its pIC50 was ≥ 7.30

* * *

target: Human recombinant Histone Deacetylase 8 (HDAC8) (Homo sapiens (Human), UniProt Q9BY41); experiment: HDAC8 Enzymatic Assay (HDAC-Glo I/II luminescence); assay type: biochemical; settings: class symbols, Table 14; read-out: HDAC8 IC50
pIC50: −log10 of the molar value.
VALUE KIND: pIC50

// sample Cc1cccc2cn(C(Cc3ccccc3)C(=O)NO)nc12 (centres unmarked) , its pIC50 was < 6.30

// sample O=C(NO)C(Cc1ccccc1)n1nc2c(-c3cncnc3)nccc2c1C#CC1CC1 (centres unmarked) , its pIC50 was ≥ 7.30

// sample O=C(NO)C(Cc1ccccc1)c1cnc2cc(Cl)ccn12 (centres unmarked) , its pIC50 was ≥ 7.30

// sample O=C(NO)C(Cc1ccccc1)n1cc2ccc(-c3ccccc3)cc2n1 (centres unmarked) , its pIC50 was 6.30 to 6.70

// sample O=C(NO)C(Cc1ccccc1)n1cc2ccc(Br)cc2n1 (centres unmarked) , its pIC50 was 6.30 to 6.70

* * *

Can you tell me IC50 for the items I'm about to list?
target: Human recombinant Histone Deacetylase 8 (HDAC8) (Homo sapiens (Human), UniProt Q9BY41); assay: HDAC8 Enzymatic Assay (HDAC-Glo I/II luminescence); format: biochemical; conditions: class symbols, Table 14; read-out: HDAC8 IC50

// sample O=C(NO)C(Cc1ccccc1)n1ncc2cc(C3CC3)ccc21 (stereo not shown) [Compound I-0019] , its IC50 was > 500 nM

// sample O=C(NO)C(Cc1ccccc1)n1nc2ccc(-c3c(F)cccc3F)cc2c1C#CC1CC1 (stereo not shown) [Compound I-0027] , its IC50 was 200 to 500 nM

// sample COc1ncc(-c2ccc3nn(C(Cc4ccccc4)C(=O)NO)cc3c2)cn1 (stereo not shown) [Compound I-0035] , its IC50 was 200 to 500 nM

// sample CN(C)C(=O)c1ccc(-c2cccc3c(C#CC4CC4)n(C(Cc4ccccc4)C(=O)NO)nc23)cc1 (stereo not shown) [Compound I-0139] , its IC50 was ≤ 50 nM

* * *

biological target: Human recombinant Histone Deacetylase 8 (HDAC8) (Homo sapiens (Human)); assay: HDAC8 Enzymatic Assay (HDAC-Glo I/II luminescence); assay type: biochemical; conditions: class symbols, Table 14; read-out: HDAC8 IC50
pIC50: −log10 of the molar value.
VALUE KIND: pIC50

// sample O=C(NO)C(Cc1ccccc1)n1cc2ccc(F)cc2n1 (centres unmarked) [Compound I-0037] , its pIC50 was < 6.30

// sample O=C(NO)C(Cc1ccccc1)n1cc2c(n1)CCCC2 (centres unmarked) [Compound I-0200] , its pIC50 was 6.30 to 6.70

// sample O=C(NO)C(Cc1ccccc1)n1ncc2cc(C3CCC(N4CCCC4)CC3)ccc21 (centres unmarked) [Compound I-0153] , its pIC50 was 6.70 to 7.30

// sample O=C(NC1CCOCC1)c1cccc2cn(C(Cc3ccccc3)C(=O)NO)nc12 (centres unmarked) [Compound I-0176] , its pIC50 was 6.70 to 7.30

// sample O=C(NO)C(Cc1ccccc1)n1nc2c(-c3cncnc3)cccc2c1C#CC1CC1 (centres unmarked) [Compound I-0156] , its pIC50 was ≥ 7.30
